Biological target: Tyk2/JAK2 (heterodimeric complex) (Homo sapiens (Human), UniProt P29597)
Sequence (P29597 whole entry, other chains not shown): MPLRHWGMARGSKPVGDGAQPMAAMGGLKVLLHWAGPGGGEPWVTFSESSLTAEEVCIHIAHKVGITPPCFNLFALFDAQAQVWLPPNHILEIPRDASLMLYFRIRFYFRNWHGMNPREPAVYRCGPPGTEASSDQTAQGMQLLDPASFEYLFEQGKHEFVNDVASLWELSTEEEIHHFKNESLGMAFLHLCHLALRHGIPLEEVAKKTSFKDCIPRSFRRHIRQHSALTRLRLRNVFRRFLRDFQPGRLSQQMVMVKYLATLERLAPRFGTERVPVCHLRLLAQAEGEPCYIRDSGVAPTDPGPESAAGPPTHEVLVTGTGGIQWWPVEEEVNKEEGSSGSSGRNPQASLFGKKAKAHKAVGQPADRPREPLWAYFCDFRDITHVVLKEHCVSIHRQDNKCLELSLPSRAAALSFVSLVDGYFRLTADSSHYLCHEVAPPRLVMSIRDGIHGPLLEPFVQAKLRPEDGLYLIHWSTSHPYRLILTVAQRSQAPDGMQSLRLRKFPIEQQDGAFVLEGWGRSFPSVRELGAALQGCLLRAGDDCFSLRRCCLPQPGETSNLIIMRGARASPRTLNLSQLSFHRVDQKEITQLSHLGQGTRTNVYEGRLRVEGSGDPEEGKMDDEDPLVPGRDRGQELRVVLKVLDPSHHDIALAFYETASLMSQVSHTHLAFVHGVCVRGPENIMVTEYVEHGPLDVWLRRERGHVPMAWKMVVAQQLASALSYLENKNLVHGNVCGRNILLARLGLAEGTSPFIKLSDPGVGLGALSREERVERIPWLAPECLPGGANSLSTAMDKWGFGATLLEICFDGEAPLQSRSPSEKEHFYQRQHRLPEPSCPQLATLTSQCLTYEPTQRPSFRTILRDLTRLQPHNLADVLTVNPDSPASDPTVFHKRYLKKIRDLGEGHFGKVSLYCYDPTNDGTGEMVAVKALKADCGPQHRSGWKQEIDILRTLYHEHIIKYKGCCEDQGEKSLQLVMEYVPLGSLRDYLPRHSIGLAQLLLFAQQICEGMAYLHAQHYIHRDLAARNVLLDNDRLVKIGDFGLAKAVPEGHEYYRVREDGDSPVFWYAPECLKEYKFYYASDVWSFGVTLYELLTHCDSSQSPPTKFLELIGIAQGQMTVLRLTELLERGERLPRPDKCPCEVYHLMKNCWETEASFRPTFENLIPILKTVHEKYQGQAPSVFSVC
Test: IL-12 Induced pSTAT4 in Human PBMC
Assay type: cell-based
Details: 1.7 ng/mL IL-12
Excerpt: The IL-12 Induced pSTAT4 assay evaluates the inhibition of IL-12 induced STAT4 phophorylation mediated by Tyk2/JAK2 (heterodimeric complex).
pIC50: −log10 of the molar value.
Result Type: pIC50

Examples with answers:
# Chemical Structure, pIC50
measured = [
    ("CNc1cc(Nc2cccn(-c3ccc(C(=O)N4CCCC4)cn3)c2=O)nc2c(C(=O)NC3CCC3)cnn12", "6.30 to 7.00"),
    ("CNc1cc(Nc2cccc(N3CCCC3=O)n2)nc2c(C(=O)NC3CC3)cnn12", "> 7.00"),
    ("CNC(=O)c1occc1Nc1cc(NC)n2ncc(C(=O)N[C@@H]3C[C@@H]3F)c2n1", "> 7.00"),
    ("CNc1cc(Nc2cc(F)ccc2F)nc2c(C(=O)NC3CC3)cnn12", "> 7.00"),
    ("CNc1cc(Nc2cccn(C(C)C)c2=O)nc2c(C(=O)N[C@@H]3CC[C@H]3O)cnn12", "> 7.00"),
]

Recall the reported pIC50 of CCOc1ccc(-n2cccc(Nc3cc(NC)n4ncc(C(=O)N[C@H]5C[C@H]5F)c4n3)c2=O)nn1 when tested on Tyk2/JAK2 (heterodimeric complex) (Homo sapiens (Human), UniProt P29597).
> 7.00

State recorded pIC50 with Tyk2/JAK2 (heterodimeric complex) (Homo sapiens (Human), UniProt P29597), entry CNc1cc(Nc2cccnc2OC(C)C)nc2c(C(=O)NC3CCC3)cnn12 , no comment.
6.30 to 7.00

Using Tyk2/JAK2 (heterodimeric complex) (Homo sapiens (Human), UniProt P29597) as the test system, report measured pIC50 of CNc1cc(Nc2cccn(-c3ccccn3)c2=O)nc2c(C(=O)N[C@@H]3C[C@H]3OC)cnn12 .
> 7.00

State pIC50 (Tyk2/JAK2 (heterodimeric complex) (Homo sapiens (Human), UniProt P29597)) of CNc1cc(Nc2cccn(C[C@@H]3CCCCO3)c2=O)nc2c(C(=O)N[C@@H]3C[C@@H]3F)cnn12 .
> 7.00

For Tyk2/JAK2 (heterodimeric complex) (Homo sapiens (Human), UniProt P29597), give the measured pIC50 of the entry CNc1cc(Nc2cc(F)cnc2OC(C)C)nc2c(C(=O)N[C@H]3C[C@H]3F)cnn12
6.30 to 7.00

For Tyk2/JAK2 (heterodimeric complex) (Homo sapiens (Human), UniProt P29597), give the measured pIC50 of the entry CNc1cc(Nc2cccnc2OC)nc2c(C(=O)N[C@H]3C[C@@H]3O)cnn12
> 7.00

Please indicate recorded pIC50 of CNc1cc(Nc2cc(Cl)cn(-c3cc(C)n(C)n3)c2=O)nc2c(C(=O)NC3CC3)cnn12 measured with Tyk2/JAK2 (heterodimeric complex) (Homo sapiens (Human), UniProt P29597).
> 7.00

Find the measured pIC50 of CNc1cc(Nc2cccn(C3CCCCC3)c2=O)nc2c(C(=O)N[C@@H]3CC[C@@H]3O)cnn12 with Tyk2/JAK2 (heterodimeric complex) (Homo sapiens (Human), UniProt P29597) as test system.
> 7.00

Name the value of pIC50 reported for CNc1cc(Nc2cccn(-c3cccc(F)c3)c2=O)nc2c(C(=O)N[C@@H]3CC[C@H]3O)cnn12 when tested on Tyk2/JAK2 (heterodimeric complex) (Homo sapiens (Human), UniProt P29597).
> 7.00

====

Entries and their Kd
Molecular target: human TYK2 (JH2domain-pseudokinase) (Homo sapiens (Human), UniProt P29597)
Sequence (P29597 556-888): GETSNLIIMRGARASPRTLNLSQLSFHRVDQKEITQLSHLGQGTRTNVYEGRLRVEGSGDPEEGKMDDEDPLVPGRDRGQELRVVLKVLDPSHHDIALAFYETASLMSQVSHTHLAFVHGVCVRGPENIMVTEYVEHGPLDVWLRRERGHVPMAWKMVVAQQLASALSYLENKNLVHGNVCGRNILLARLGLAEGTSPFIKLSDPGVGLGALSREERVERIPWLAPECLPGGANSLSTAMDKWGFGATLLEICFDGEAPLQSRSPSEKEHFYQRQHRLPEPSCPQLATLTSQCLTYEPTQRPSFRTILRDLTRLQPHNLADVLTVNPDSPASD
Test: TYK2 JH2 Domain Binding Assay (KINOMEscan)

Below: 6 molecules and their reported Kd.
# Molecule, Data Value
data = [
    ("CNc1cc(Nc2cccn(-c3cnc(C)o3)c2=O)nc2c(C(=O)N[C@H]3C[C@H]3F)cnn12 [I-718]", "< 0.2 nM"),
    ("CNc1cc(Nc2cc(Cl)cn(-c3ncc(C)s3)c2=O)nc2c(C(=O)N[C@H]3C[C@H]3F)cnn12 [I-323]", "< 0.2 nM"),
    ("CNc1cc(Nc2cccnc2OC)nc2c(C(=O)NC3COC3)cnn12 [I-83]", "> 10 nM"),
    ("NC(=O)c1cnn2c(N)cc(Nc3cccn(-c4ccc(F)cn4)c3=O)nc12 [I-52]", "0.2 to 1 nM"),
    ("CNc1cc(Nc2cccc([C@H]3CCCOC3)n2)nc2c(C(=O)NCC(C)(C)CO)cnn12 [I-579]", "< 0.2 nM"),
    ("CNc1cc(Nc2cccnc2O[C@H]2CC[C@H](O)CC2)nc2c(C(=O)NC3CCC3)cnn12 [I-232]", "< 0.2 nM"),
]

Note down Kd recorded for CNc1cc(-c2cn(CCN3CCOCC3)c3ncccc23)nc2c(C(=O)N[C@@H]3CC[C@H]3O)cnn12 [I-792]
< 0.2 nM

Hello, please tell me recorded Kd for this one: CNc1cc(-c2cn(CCCO)c3ncccc23)nc2c(C(=O)N[C@@H]3CC[C@H]3OC)cnn12 [I-1299]
< 0.2 nM

Give the reported Kd for this molecule. CNc1cc(Nc2cccnc2OC2CC2)nc2c(C(=O)N[C@H]3C[C@H](O)C3)cnn12 [I-320]
< 0.2 nM
